- Tested on: HCV replicon cells
- Assay Name: Cell-based HCV replicon assay (replicon RNA level by real time PCR, Taqman)
- Test Conditions: Hepatitis C virus, 72 h, HCV replicon cells, replicon RNA level by real time PCR, harvested day 3; read-out: EC90 (μM) range
Catalogue of EC90 readings, one per entry.
Measured Endpoint: EC90

1) Cc1nc(NCc2c(F)cccc2F)nc(N[C@@H]2CC[C@@H](O)[C@@]2(C)O)c1-c1nc2cnccc2s1 < 0.5 µM
2) CCc1nccc2sc(-c3c(C)nc(N[C@H](C)C4CC4)nc3N[C@@H]3C[C@H](CO)[C@@H](O)[C@H]3O)nc12 < 0.5 µM
3) Cc1nc(NCc2cccs2)nc(N[C@@H]2C[C@H](CO)[C@@H](O)[C@H]2O)c1-c1cc2ccccc2s1 > 5 µM
4) Cc1cccc([C@@H](C)Nc2nc(C)c(-c3nc4c(C)nccc4s3)c(N[C@@H]3C[C@H](CO)[C@@H](O)[C@H]3O)n2)c1 < 0.5 µM
5) Cc1nc(NCc2cc3cnn(C(=O)OC(C)(C)C)c3cc2F)nc(N[C@@H]2C[C@H](CO)[C@H]3OC(C)(C)O[C@H]32)c1-c1nc2ccccc2s1 0.5 to 5 µM
6) COc1ccc([C@@H](C)Nc2nc(C)c(-c3nc4c(C)nccc4s3)c(N[C@@H]3C[C@H](CO)[C@@H](O)[C@H]3O)n2)cc1 < 0.5 µM
7) Cc1nc(N[C@H](C)c2ccc(OC(F)(F)F)cc2)nc(N[C@@H]2CC[C@@H](O)[C@@]2(C)O)c1-c1nc2cnccc2s1 0.5 to 5 µM
8) Cc1ccc([C@@H](C)Nc2nc(C)c(-c3nc4cnccc4s3)c(N[C@@H]3C[C@H](CO)[C@@H](O)[C@@]3(C)O)n2)cc1 < 0.5 µM
9) Cc1nc(NCC(F)(F)F)nc(N[C@@H]2C[C@H](CNS(C)(=O)=O)[C@@H](O)[C@H]2O)c1-c1nc2ccccc2s1 < 0.5 µM
10) CCCc1nccc2sc(-c3c(C)nc(N[C@H](C)C4CC4)nc3N[C@@H]3C[C@H](CNS(C)(=O)=O)[C@@H](O)[C@H]3O)nc12 < 0.5 µM
11) CC[C@@H](Nc1nc(C)c(-c2nc3c(C)nccc3s2)c(N[C@@H]2C[C@H](CO)[C@@H](O)[C@H]2O)n1)c1ccc(C)cc1 < 0.5 µM
12) Cc1nc(NC2CC2)nc(N[C@@H]2C[C@H](CO)[C@@H](O)[C@H]2O)c1-c1nc2c(CC(C)C)nccc2s1 < 0.5 µM
13) Cc1nc(NCC(F)(F)F)nc(N[C@@H]2C[C@H](C)[C@@H](O)[C@H]2O)c1-c1nc2cnccc2s1 < 0.5 µM
14) Cc1ccc([C@H](Nc2nc(C)c(-c3nc4c(C)nccc4s3)c(N[C@@H]3C[C@H](CO)[C@@H](O)[C@H]3O)n2)C2CC2)cc1 < 0.5 µM
15) Cc1nc(N[C@H](c2ccc(-n3cccn3)cc2)C(F)(F)F)nc(N[C@@H]2C[C@H](CO)[C@@H](O)[C@H]2O)c1-c1nc2c(C)nccc2s1 > 5 µM

* * *

- Tested on: HCV replicon cells
- Assay Name: Cell-based HCV replicon assay (replicon RNA level by real time PCR, Taqman)
- Test Conditions: Hepatitis C virus, 72 h, HCV replicon cells, harvested day 3, replicon RNA by real time PCR; given as number; read-out: EC90 (μM) range
- Experimental: Assays Cell-Based HCV Replicon Assay To measure cell-based anti-HCV activity of the compounds of the present invention, replicon cells were seeded at 5000 cells/well in 96-well collagen I-coated Nunc plates in the presence of the compound of the invention. […] The replicon RNA level was measured using real time PCR (Taqman assay). […]
Measured Endpoint: EC90

1) CCOc1cc2cc(-c3c(C)nc(N[C@H](C)c4ccc(C)cc4)nc3N[C@@H]3C[C@H](CO)[C@@H](O)[C@H]3O)oc2c(C)n1 0.15 µM
2) COCCNc1nc(C)c(-c2cc3cc(OC(C)C)nc(C)c3o2)c(N[C@@H]2C[C@H](CO)[C@@H](O)[C@H]2O)n1 0.3 µM
3) Cc1nc(NCC(C)(C)C)nc(N[C@@H]2C[C@H](CO)[C@@H](O)[C@H]2O)c1-c1cc2cc(OCC(F)(F)F)nc(C)c2o1 0.85 µM
4) Cc1nc(NCCCF)nc(N[C@@H]2C[C@H](CO)[C@@H](O)[C@H]2O)c1-c1nc2ccccc2s1 0.7 µM
5) Cc1nc(NCC(F)(F)F)nc(N[C@@H]2C[C@H](COC(=O)N3CCOCC3)[C@@H](O)[C@H]2O)c1-c1nc2ccccc2s1 0.45 µM
